study.target: EF2K (Homo sapiens)
Construct: host or cells: LN-229 cell lysate
Sequence (O00418 whole entry): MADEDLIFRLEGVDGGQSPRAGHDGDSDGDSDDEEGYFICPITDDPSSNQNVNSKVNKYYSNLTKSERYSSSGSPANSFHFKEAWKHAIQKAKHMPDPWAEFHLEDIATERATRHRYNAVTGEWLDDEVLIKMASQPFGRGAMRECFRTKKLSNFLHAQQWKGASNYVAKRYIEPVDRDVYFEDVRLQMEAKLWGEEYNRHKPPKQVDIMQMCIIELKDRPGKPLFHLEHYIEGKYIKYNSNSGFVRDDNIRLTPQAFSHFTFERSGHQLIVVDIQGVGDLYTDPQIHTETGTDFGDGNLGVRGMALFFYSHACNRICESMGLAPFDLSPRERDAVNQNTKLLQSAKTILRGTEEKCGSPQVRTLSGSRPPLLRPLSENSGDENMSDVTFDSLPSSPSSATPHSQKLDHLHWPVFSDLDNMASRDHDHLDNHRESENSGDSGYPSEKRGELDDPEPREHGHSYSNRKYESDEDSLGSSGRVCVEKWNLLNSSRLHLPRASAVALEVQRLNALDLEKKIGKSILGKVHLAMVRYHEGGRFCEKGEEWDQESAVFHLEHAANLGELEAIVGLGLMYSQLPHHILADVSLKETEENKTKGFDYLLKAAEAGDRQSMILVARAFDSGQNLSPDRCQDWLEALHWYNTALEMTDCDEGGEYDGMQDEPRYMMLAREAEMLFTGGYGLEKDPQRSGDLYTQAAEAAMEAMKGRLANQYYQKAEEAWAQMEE
test.description: EF2K cell-based assay (P-EF2 AlphaLISA, 2-deoxyglucose stimulated MCF10A cells)
experimental.parameters: 2.5 mM 2-deoxyglucose stimulated, P-EF2 Thr56, pIC50 = -log IC50 (M), read-out: eEF2K_C_PThr56 pIC50 (converted)
observed.property: IC50 (M)
Express your answer in M, writing the number without its unit.

Record summary for CCCN1CCNC(=O)CN2CCN(CC2)Cc2cccc(c2)Nc2nccc(n2)-c2ccc(nc2)C1 [Compound 43] : reported IC50 = 1.91e-07

Record summary for CC(C)N1CCNc2ccc(cn2)-c2ccnc(n2)Nc2cccc(c2)CN2CCN(CC2)CC1=O [Compound 21] : reported IC50 = 8.71e-06

Record summary for CN1CCCN(C)c2ccc(cn2)-c2ccnc(n2)Nc2ccc(C(N)=O)c(c2)CN2CCN(CC2)CC1=O [Compound 10] : reported IC50 = 1.29e-05

Record summary for CN1CCCN(C)c2ccc(cn2)-c2ccnc(n2)Nc2cccc(c2)CN2CCN(CC1=O)CC2COCCO (stereo not drawn) [Compound 103] : reported IC50 = 1.86e-05

Record summary for O=C1CN2CCN(CC2)Cc2cccc(c2)Nc2nccc(n2)-c2ccc(nc2)N2CC(O)CC2CCN1 (single isomer, unassigned) [Compound 96] : reported IC50 = 1.26e-06

----------
Parameter IC50: see the listing below.
study.target: UniProt Q8NEB9
Sequence (Q8NEB9 whole entry, species assumed): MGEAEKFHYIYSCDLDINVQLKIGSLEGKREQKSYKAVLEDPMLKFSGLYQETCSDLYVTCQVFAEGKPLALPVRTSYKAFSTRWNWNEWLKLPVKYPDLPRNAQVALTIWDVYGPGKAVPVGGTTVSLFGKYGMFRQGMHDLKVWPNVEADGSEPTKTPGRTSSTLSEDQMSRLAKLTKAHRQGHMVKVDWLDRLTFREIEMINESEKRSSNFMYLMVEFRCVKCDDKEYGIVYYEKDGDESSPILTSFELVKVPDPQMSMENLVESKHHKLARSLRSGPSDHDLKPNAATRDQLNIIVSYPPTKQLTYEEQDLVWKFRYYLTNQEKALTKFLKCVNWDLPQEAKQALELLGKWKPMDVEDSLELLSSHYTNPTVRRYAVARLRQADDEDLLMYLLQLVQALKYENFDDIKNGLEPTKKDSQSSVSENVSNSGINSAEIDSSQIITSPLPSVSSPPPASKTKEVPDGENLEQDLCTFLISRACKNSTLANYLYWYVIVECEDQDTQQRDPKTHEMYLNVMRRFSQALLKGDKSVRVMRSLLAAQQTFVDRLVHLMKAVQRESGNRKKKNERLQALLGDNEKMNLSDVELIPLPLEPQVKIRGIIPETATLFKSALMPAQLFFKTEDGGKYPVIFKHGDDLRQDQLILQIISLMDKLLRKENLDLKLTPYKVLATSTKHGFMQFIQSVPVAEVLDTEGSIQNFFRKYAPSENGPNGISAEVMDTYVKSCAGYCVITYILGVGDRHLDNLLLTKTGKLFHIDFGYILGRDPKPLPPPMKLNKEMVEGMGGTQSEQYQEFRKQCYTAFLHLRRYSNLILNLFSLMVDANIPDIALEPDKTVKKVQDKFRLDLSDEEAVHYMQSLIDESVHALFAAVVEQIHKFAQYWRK
test.description: Biochemical Vps34 lipid kinase assay (ADP-Glo)
experimental.parameters: serial half-log dilution 10 μM to 0.3 nM; pIC50 = -log IC50 (M)
Express your answer in M, writing the number without its unit.

{"columns": ["compound", "quantity.unit", "readout.number"],
 "data": [
  ["COCC1CN2CCN1Cc1cccc(c1)Nc1nccc(n1)-c1ccc(nc1)N(C)CCCN(C)C(=O)C2 (stereo not shown)", "M", "5.37e-07"],
  ["N#CCCN1CCCNC(=O)CN2CCN(Cc3cccc(c3)Nc3nccc(n3)-c3ccc1nc3)C(CO)C2 (stereo not shown)", "M", "8.51e-08"],
  ["CN1CCCN(C)c2ccc(cn2)-c2ccnc(n2)Nc2cccc(c2)CN2CCN(CC2)C(=O)C1", "M", "6.92e-08"],
  ["CN1CCCN(C)c2ccc(cn2)-c2ccnc(n2)Nc2cccc(c2)CN2CCN(CC1=O)CC2COCCO (single isomer, unassigned) [Compound 105]", "M", "9.77e-07"],
  ["CC1CN2CCN1Cc1cccc(c1)Nc1nccc(n1)-c1ccc(nc1)NCCCNC(=O)C2 (single isomer, unassigned) [Compound 61]", "M", "4.47e-08"],
  ["O=C1CN2CCN(CC2)Cc2cccc(c2)Nc2nccc(n2)-c2ccc(nc2)NCCN1", "M", "1.7e-07"]
]}

Kindly consider the entry below.
Result for CN1CCCN(C)c2ccc(cn2)-c2ccnc(n2)Nc2cccc(c2)CC2CCN(CC2)CC1=O , tested on UniProt Q8NEB9, IC50: 2.88e-07

----------
Parameter log10 IC50: see the listing below.
study.target: EF2K (Homo sapiens)
Construct: host or cells: LN-229 cell lysate
test.description: Biochemical EF2K lysate-based kinase assay (AlphaLISA p-eEF2 Thr56)
experimental.parameters: pIC50 = -log IC50 (M), read-out: eEF2K_C_alphalisa pIC50 (converted)
From the text: Biochemical EF2K Lysate-Based Kinase Assay LN-229 cells were purchased from ATCC (CRL-2611); these are glioblastoma cells. Cell lysates from LN229 were used in this kinase assay to provide both the kinase and the substrate (EF2). The AlphaLISA p-eEF2 (Thr56) detection assay was developed using a sandwich assay format with two specific antibodies recognizing different epitopes of the target, including one antibody against the phosphorylation site of interest. […]
Scale: decimal log of IC50, IC50 in M.

{"columns": ["compound", "log10 IC50"],
 "data": [
  ["CN1CCCN(C)c2ccc(cn2)-c2ccnc(n2)Nc2cccc(c2)CN2CCN(CC2)C(=O)C1", -5.75]
]}

Record summary for C=CCN1CCNC(=O)CN2CCN(CC2)Cc2cccc(c2)Nc2nccc(n2)-c2ccc(nc2)C1 : reported log10 IC50 = -8.10

Record summary for CN1CCCN(C)c2ncc(cn2)-c2ccnc(n2)Nc2cccc(c2)CN2CCN(CC2)CC1=O : reported log10 IC50 = -6.54

Record summary for COCC1C(=O)NCCCNc2ccc(cn2)-c2ccnc(n2)Nc2cccc(c2)CN2CCN1CC2 (stereo not shown) : reported log10 IC50 = -7.11

Record summary for O=C1CN2CCN(CC2)Cc2cccc(c2)Nc2nccc(n2)-c2ccc(nc2)N2CCCC2CN1 (stereo not shown) [Compound 80] : reported log10 IC50 = -6.76

Record summary for O=C1CN2CCN(CC2)Cc2cccc(c2)Nc2nccc(n2)-c2ccc(nc2)CN(C(=O)C2CC2)CCN1 : reported log10 IC50 = -7.07

Record summary for CN1CCCNC(=O)CN2CCN(CC2=O)Cc2cccc(c2)Nc2nccc(n2)-c2ccc1nc2 : reported log10 IC50 = -5.92
